Data origin: patent US20100061982A1

- run_description: Buffer Stability (37° C.)
- test_conditions: SGF
Give measured Buffer Stability (37° C.) % Remaining (at 16-23 hours) SGF for each item. Keep answers brief.
Give bare numbers, in %.

Worked examples, 5 compounds total:
COc1ccc2[nH]c(-c3ccccc3)c(/C=C3\Oc4cc(OC(=O)OC(C)C)cc(OC(=O)OC(C)C)c4C3=O)c2c1 [Example 7] ... 93
COc1ccc2c(c1)c(/C=C1\Oc3cc(OC(=O)N(c4ccccc4)c4ccccc4)cc(OC(=O)N(c4ccccc4)c4ccccc4)c3C1=O)cn2CCCN(C)C [Example 21] ... 99
COc1ccc2[nH]c(-c3ccccc3)c(/C=C3\Oc4cc(OC(=O)c5ccccc5)ccc4C3=O)c2c1 [Example 17] ... 96
COc1ccc2[nH]c(-c3ccccc3)c(/C=C3\Oc4cc(OC(=O)N(c5ccccc5)c5ccccc5)ccc4C3=O)c2c1 [Example 20] ... 100
COc1ccc2c(c1)c(/C=C1\Oc3cc(O)cc(O)c3C1=O)cn2CCCN(C)C ... 95

Parameters: items (list). Returns: Buffer Stability (37° C.) % Remaining (at 16-23 hours) SGF for each item.
1. COc1ccc2c(c1)c(/C=C1\Oc3cc(OC(=O)N(C)c4ccccc4)ccc3C1=O)c(C)n2CCN1CCN(C)CC1 [Example 46]
2. CN(C)C(=O)Oc1cc(OC(=O)N(C)C)c2c(c1)O/C(=C\c1cn(C)c3nccc(-c4ccccc4)c13)C2=O [Example 43]

result:
1: 98; 2: 100

====

For each record, write down the corresponding PAMPA Pe.
- run_description: PAMPA permeability pH 7.4

Past entries and their recorded results:
COc1ccc2c(c1)c(/C=C1\Oc3cc(OC(C)=O)cc(OC(C)=O)c3C1=O)cn2CCCN(C)C [Example 15] ... 0.24 10e−6 cm/s
COc1ccc2c(c1)c(/C=C1\Oc3cc(OC(=O)OC(C)C)cc(OC(=O)OC(C)C)c3C1=O)cn2CCCN(C)C [Example 5] ... 0 10e−6 cm/s
Cn1cc(/C=C2\Oc3cccc(O)c3C2=O)c2c(N3CC4CCC(C3)O4)ccnc21 ... 0.79 10e−6 cm/s
COc1ccc2c(c1)c(/C=C1\Oc3cc(OC(=O)N(C)C)cc(OC(=O)N(C)C)c3C1=O)cn2CCCN(C)C [Example 8] ... 4.53 10e−6 cm/s

Please state PAMPA Pe for every compound in the list that follows.
1. CCOC(=O)CNC(=O)Oc1ccc2c(c1)O/C(=C\c1cn(CCCN(C)C)c3ccc(OC)cc13)C2=O [Example 25]
2. COc1ccc2[nH]c(-c3ccccc3)c(/C=C3\Oc4cc(OP(=O)(O)O)cc(OP(=O)(O)O)c4C3=O)c2c1 [Example 38]

result:
1. 0 10e−6 cm/s
2. 0.01 10e−6 cm/s

====

- run_description: Solubility pH 7.4
- test_conditions: pH 7.4, aqueous buffer
measured_endpoint: solubility (µg/mL)
Give bare numbers, in µg/mL.

CCOP(=O)(OCC)Oc1cc2c(c(OP(=O)(OCC)OCC)c1)C(=O)/C(=C/c1cn(CCCN(C)C)c3ccc(OC)cc13)O2 ... 59

# per-item lookup of solubility; items listed below
1. COC(=O)Oc1cc(OC(=O)OC)c2c(c1)O/C(=C\c1cn(CCCN(C)C)c3ccc(OC)cc13)C2=O
2. CNC(=O)Oc1ccc2c(c1)C(=O)/C(=C/c1cn(CCN3CCN(C)CC3)c3ccc(OC)cc13)O2
3. Cn1cc(/C=C2\Oc3cc(O)cc(O)c3C2=O)c2c(-c3ccccc3)ccnc21
4. COc1ccc2c(c1)c(/C=C1\Oc3cc(O)cc(O)c3C1=O)cn2CCCN(C)C
5. COc1ccc2c(c1)c(/C=C1\Oc3cc(OC(=O)N(c4ccccc4)c4ccccc4)cc(OC(=O)N(c4ccccc4)c4ccccc4)c3C1=O)c(C)n2CCN1CCN(C)CC1

result:
[43, 63, 1, 33, 5]

====

Would you mind telling me the reported half-life of each entry?
- run_description: Microsome Stability (15 min), rat
- Format: in vitro ADME
- test_conditions: microsomes, Phase I (NADPH), read-out: Microsome Stability (15 min) T ½ Phase I rat
One number for each entry, in min.

COc1ccc2c(c1)c(/C=C1\Oc3cc(O)ccc3C1=O)c(C)n2CCN1CCN(C)CC1 ... 12

For the next question, use this molecule.
query: Which half-life reading was recorded for the molecule COc1ccc2[nH]c(-c3ccccc3)c(/C=C3\Oc4cc(OC(=O)N(C)C)cc(OC(=O)N(C)C)c4C3=O)c2c1 [Example 30] ?
result: 19

====

- run_description: Buffer Stability (37° C.)
- test_conditions: pH 9
measured_endpoint: Buffer Stability (37° C.) % Remaining (at 16-23 hours) pH 9 (%)
Numbers only, in %.

In the examples that follow, each entry is paired with its recorded Buffer Stability (37° C.) % Remaining (at 16-23 hours) pH 9.
CN(C)C(=O)Oc1cccc2c1C(=O)/C(=C/c1cn(C)c3nccc(N4CC5CCC(C4)O5)c13)O2 [Example 44] ... 100
COc1ccc2c(c1)c(/C=C1\Oc3cc(OC(=O)OC(C)C)cc(OC(=O)OC(C)C)c3C1=O)cn2CCCN(C)C [Example 5] ... 0
COc1ccc2c(c1)c(/C=C1\Oc3cc(OC(=O)N(c4ccccc4)c4ccccc4)cc(OC(=O)N(c4ccccc4)c4ccccc4)c3C1=O)cn2CCCN(C)C [Example 21] ... 87
COc1ccc2c(c1)c(/C=C1\Oc3cc(OC(=O)C(C)(C)C)cc(OC(=O)C(C)(C)C)c3C1=O)cn2CCCN(C)C [Example 14] ... 0
COc1ccc2[nH]c(-c3ccccc3)c(/C=C3\Oc4cc(OC(=O)Oc5ccccc5)ccc4C3=O)c2c1 [Example 19] ... 0
COc1ccc2[nH]c(-c3ccccc3)c(C=C3Oc4cc(O)cc(O)c4C3=O)c2c1 ... 72

query: What measured Buffer Stability (37° C.) % Remaining (at 16-23 hours) pH 9 goes with CN(C)C(=O)Oc1cc(OC(=O)N(C)C)c2c(c1)O/C(=C\c1cn(C)c3nccc(-c4ccccc4)c13)C2=O [Example 43] ?
result: 100

====

- run_description: Buffer Stability (37° C.)
- test_conditions: SGF
Assign Buffer Stability (37° C.) % Remaining (at 16-23 hours) SGF to each entry below.
One number for each entry, in %.

Reference set (3 entries):
COc1ccc2c(c1)c(/C=C1\Oc3cc(OC(=O)N(C(C)C)C(C)C)cc(OC(=O)N(C(C)C)C(C)C)c3C1=O)cn2CCCN(C)C ... 100
COc1ccc2[nH]c(-c3ccccc3)c(/C=C3\Oc4cc(O)ccc4C3=O)c2c1 ... 93
CN(C)C(=O)Oc1cc(OC(=O)N(C)C)c2c(c1)O/C(=C\c1cn(C)c3cccc(-c4ccccc4)c13)C2=O ... 100

Then there is this compound:
query: So what's the measured Buffer Stability (37° C.) % Remaining (at 16-23 hours) SGF for this one? COc1ccc2[nH]c(-c3ccccc3)c(/C=C3\Oc4cc(OC(=O)C(C)(C)C)cc(OC(=O)C(C)(C)C)c4C3=O)c2c1
result: 95

====

- run_description: Plasma Stability (37° C.), rat
// classify: if (Plasma Stability (37° C.) % Remaining (3-3.5 hours) rat < 60%) Met else Not met

Use these answered entries as a reference point.
CN(C)C(=O)Oc1cccc2c1C(=O)/C(=C/c1cn(C)c3nccc(N4CC5CCC(C4)O5)c13)O2 [Example 44] ... Met
COc1ccc2[nH]c(-c3ccccc3)c(/C=C3\Oc4cc(OC(=O)N(c5ccccc5)c5ccccc5)cc(OC(=O)N(c5ccccc5)c5ccccc5)c4C3=O)c2c1 [Example 11] ... Not met
COc1ccc2c(c1)c(/C=C1\Oc3cc(O)cc(O)c3C1=O)cn2CCCN(C)C ... Not met
COc1ccc2[nH]c(-c3ccccc3)c(/C=C3\Oc4cc(OC(C)=O)cc(OC(C)=O)c4C3=O)c2c1 [Example 3] ... Met
COc1ccc2[nH]c(-c3ccccc3)c(/C=C3\Oc4cc(OC(=O)Oc5ccccc5)cc(OC(=O)Oc5ccccc5)c4C3=O)c2c1 [Example 23] ... Met
COc1ccc2c(c1)c(/C=C1\Oc3cc(OC(=O)N(C)C)cc(OC(=O)N(C)C)c3C1=O)cn2CCCN(C)C [Example 8] ... Met

query: Hello, is Plasma Stability (37° C.) % Remaining (3-3.5 hours) rat of the following molecule strictly smaller than 60%? COc1ccc2[nH]c(-c3ccccc3)c(/C=C3\Oc4cc(OC(=O)N(c5ccccc5)c5ccccc5)ccc4C3=O)c2c1 [Example 20]
result: Not met

query: Next entry: COc1ccc2c(c1)c(/C=C1\Oc3cc(OC(=O)N(C(C)C)C(C)C)cc(OC(=O)N(C(C)C)C(C)C)c3C1=O)cn2CCCN(C)C [Example 4]
result: Not met

query: Now the molecule COc1ccc2c(c1)c(/C=C1\Oc3cc(OC(=O)N(C)c4ccccc4)ccc3C1=O)c(C)n2CCN1CCN(C)CC1 [Example 46]
result: Met

query: Next: COc1ccc2c(c1)c(/C=C1\Oc3cc(OC(=O)N(C(C)C)C(C)C)ccc3C1=O)c(C)n2CCN1CCN(C)CC1 [Example 47]
result: Not met

query: And for COc1ccc2[nH]c(-c3ccccc3)c(/C=C3\Oc4cc(OC(=O)Oc5ccccc5)ccc4C3=O)c2c1 [Example 19] ?
result: Met

query: Try the molecule COc1ccc2c(c1)c(/C=C1\Oc3cc(OC(=O)N(C)C)cc(OC(=O)N(C)C)c3C1=O)c(C)n2CCN1CCN(C)CC1 [Example 12]
result: Not met

query: Okay, and COc1ccc2c(c1)c(/C=C1\Oc3cc(OC(=O)OC(C)C)cc(OC(=O)OC(C)C)c3C1=O)cn2CCCN(C)C [Example 5] ?
result: Met

query: Proceed to COc1ccc2[nH]c(-c3ccccc3)c(/C=C3\Oc4cc(OC(=O)c5ccccc5)ccc4C3=O)c2c1 [Example 17]
result: Met
